Hello, the source for this data is patent US20190248900A1, in case you need it.

# STUDY_SYSTEM: T1, PD1-hFc (human, UniProt Q15116 25-170)
# T1 construct: extracellular domain; also called PD1-hFc protein; Human PD-1-Fc (S1420, Y-Biologics)
# T1 sequence (Q15116 other isoform, or with tags, fused parts or gaps limits assumed): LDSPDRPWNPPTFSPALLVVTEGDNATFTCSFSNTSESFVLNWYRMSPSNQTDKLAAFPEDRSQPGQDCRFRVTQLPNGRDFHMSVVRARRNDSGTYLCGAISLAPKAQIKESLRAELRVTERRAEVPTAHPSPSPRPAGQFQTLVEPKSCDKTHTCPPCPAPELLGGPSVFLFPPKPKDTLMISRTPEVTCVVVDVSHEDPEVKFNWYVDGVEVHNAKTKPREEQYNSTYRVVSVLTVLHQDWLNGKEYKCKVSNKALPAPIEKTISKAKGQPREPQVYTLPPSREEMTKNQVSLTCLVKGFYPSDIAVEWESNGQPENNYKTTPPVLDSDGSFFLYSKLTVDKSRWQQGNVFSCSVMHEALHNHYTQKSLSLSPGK
# ASSAY_COMMENT: SPR ProteOn XPR36, PD1-hFc immobilised, antibody as analyte
READOUT: Kd (nM)
Could you give me the number in nM? Just the number is fine.

Sample records with Kd:
1. PD1-49A2(A/1B2) (antibody, V domains shown, scFv-phage in the screening ELISA; whole IgG in the other assays; also called 49A2-1B2; PD1 49A2 1B2) VH: QVQLVESGGGVVQPGRSLRLSCAASGFTFLRYAMHWVRQAPGKGLEWVAVISYDGQDKYYADSVKGRFTISRDNSKNTLYLQMNSLRAEDTAVYYCTTTTFDSWGRGTLVTVSS VL: DIVMTQTPLSLPVTPGEPASISCRSSQSLLDSDDGNTYLDWYLQKPGQSPQLLIYTLSHRASGVPDRFSGSGSGTEFNLRISRVEAEDVGIYYCMQRVEFPFTFGQGTKLEIK; 0.166
2. PD1-45D6(A/3H7) (antibody, V domains shown, scFv-phage in the screening ELISA; whole IgG in the other assays; also called 45D6-3H7; PD1 45D6 3H7) VH: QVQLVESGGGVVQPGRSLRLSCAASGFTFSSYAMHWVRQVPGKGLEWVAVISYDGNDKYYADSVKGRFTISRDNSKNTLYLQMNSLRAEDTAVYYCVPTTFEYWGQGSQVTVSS VL: DIVMTQTPLSLPVTPGEPASISCRSSQSLLDSDDGNTYLDWYLQKPGQSPQLLIYTLSHRASGVPGRFSGSGSGTEFNLRISRVEAEDVGIYYCMQRVEFPFTFGQGTKLEIK; 0.0253
3. PD1-49A2(A/1H8) (antibody, V domains shown, scFv-phage in the screening ELISA; whole IgG in the other assays; also called 49A2-1H8; PD1 49A2 1H8) VH: QVQLVESGGGVVQPGRSLRLSCAASGFTFKTYAMHWVRQAPGKGLEWVAVISYDGQHKYYADSVKGRFTISRDNSKNTLYLQMNSLRAEDTAVYYCTTTTFDSWGQGTLVTVSS VL: DIVMTQTPLSLPVTPGEPASISCRSSQSLLDRDGGHTYVDWYLQKPGQSPRLLIYTLSHRALGVPDRFSGSGSGTDFTLKISRVEADDVGLYYCMQRIEFPFTFGQGTKVEIK; 0.0124

Recorded result, PD1-45D6(A/5B5) (antibody, V domains shown, scFv-phage in the screening ELISA; whole IgG in the other assays; also called 45D6-5B5; PD1 45D6 5B5) VH: QVQLVESGGGVVQPGRSLRLSCAASGFTFRTYAMHWVRQAPGKGLEWVAVISYDGNDKYYADSVKGRFTISRDNSKNTLYLQMNSLRAEDTAVYYCVPTTFEYWGQGTLVTVSS VL: DIVMTQTPLSLPVMPGEAASISCRSSQSLLDSEDGNTYLDWYLQKPGQSPQLLIYTLSHRASGVPDRFSGSGSGTDFTLKISRVEADDVGIYYCMQRVEFPFTFGQGTKVEIK , Kd: 0.0477
